Taken from PubChem BioAssay (NCI).

# System: SK-MEL-5 melanoma
# assay.details: NCI-60 one-dose screen, 48 h
# conditions: 10 µM unless noted
Compounds without any hit were thinned out: in the full panel of roughly 83,000, 20% have a hit. Active and inactive are the calls of the source. Rule for the calls: active = growth percent below 10; inactive = the rest.
Classes used: active, inactive

| compound | cat |
| --- | --- |
| COc1ccc2c(c1)oc1c3[nH]c4ccccc4c3c3c(c21)C(=O)N(O)C3=O | active |
| COc1cc(C2=NN(C(C)=O)C(c3ccc(N4CCOCC4)cc3)C2)cc(OC)c1OC (stereo unspecified) | inactive |
| O=C(CCCCCCN1CC(=O)N2[C@@H](c3cccc(Br)c3)c3[nH]c4ccccc4c3C[C@H]2C1=O)NO | inactive |
| CCN1C(=O)N(CC)C2SC(N/N=C/c3ccccc3)=NC21 (stereo unspecified) | inactive |
| CC(=O)Oc1ccc(CCN2C(=O)CSC2=S)cc1 | inactive |
| C/C(Cc1ccc(Cl)cc1)=C(/c1ccccc1)c1ccc(OCCN)cc1 | inactive |
| CCCCCCNC(=O)Oc1ccc(/C(=C(/C)c2ccccc2)c2ccc(OCCN(C)C)cc2)cc1 | inactive |
| O=C1[C@@H]2Cc3c([nH]c4ccccc34)[C@H](c3c(Cl)cccc3Cl)N2C(=O)CN1C1CCN(Cc2c(F)cccc2F)CC1 | inactive |
| c1ccc(-c2n(Cc3ccc4ccccc4c3)c3c4ccccc4c4ccccc4c3[n+]2Cc2ccc3ccccc3c2)cc1 | active |
| CCOC(=O)C1=C(C)Nc2nc3ccccc3n2C1c1cccc(Br)c1 (stereo unspecified) | inactive |
| Oc1ccc(CSc2nnc(-c3ccccc3)n2-c2ccccc2)c2cccnc12 | active |

###

# Test system: NCI-H322M lung
# assay.details: NCI-60 one-dose screen, 48 h
# conditions: 10 µM unless noted
Compounds without any hit were thinned out: in the full panel of roughly 83,000, 20% have a hit. Active and inactive are the calls of the source. The calls were made as follows: active = growth percent below 10; inactive = the rest.
Classes used: yes (1) = active, no (0) = inactive

| smiles.data | cat |
| --- | --- |
| CS(=O)(=O)c1ccc2c(c1)c1c(n2C(=O)c2ccc(Cl)cc2)CCCC1 | no (0) |
| O=C(CN1C(=O)S/C(=C\c2ccccc2)C1=O)Nc1ccc(C(=O)/C=C/c2cc3ccccc3nc2Cl)cc1 | no (0) |
| CS(=O)(=O)c1nccc(-c2c(-c3ccc(F)c(OCc4ccc(F)cc4)c3)nc3sccn23)n1 | yes (1) |
| CC(C)C(=O)Nc1ccc(-c2nc(-c3cccc(O)c3)c(-c3ccnc(Br)c3)[nH]2)cc1 | no (0) |
| O=C1c2c(c3c4cccnc4[nH]c3c3ccc4ccccc4c23)C(=O)N1CCN1CCOCC1 | no (0) |
| N/C(=N\c1nc2c(Cl)cccc2s1)C(Cl)(Cl)Cl | yes (1) |
| Cc1ccc(Cc2cnc(NC(=O)/C(C#N)=C/c3ccc(-c4ccc(Cl)cc4)o3)s2)cc1 | no (0) |

###

# Test system: SR leukemia
# assay.details: NCI-60 one-dose screen, 48 h
# conditions: 10 µM unless noted
# Procedure: Growth inhibition of the SR human tumor cell line is measured as a screen for anti-cancer activity. Cells are grown in 96 well plates and exposed to the test compound for 48 hours. Compounds are tested at a single concentration, which is 10^-5 M for most compounds. The reported endpoint is percent growth (GI% or GIPRCNT), where numbers from 0 - 100% represent growth inhibition, and numbers from -100% - 0 represent cell death. For example, a value of 40 represents 60% growth inhibition. […]
About 83,000 compounds went through this panel and 20% of them were active in at least one assay; those are over-represented in the sample as a whole. Calls of active or inactive are those of the source. Rule for the calls: active = growth percent below 10; inactive = the rest.
Labels: true (1) for active, false (0) for inactive

| compound | target | cat |
| --- | --- | --- |
| O=C(O)CNS(=O)(=O)c1ccc(Oc2ccc(S(=O)(=O)NCC(=O)O)cc2)cc1 | SR leukemia | false (0) |
| COC[C@@]1(C)CC[C@]2(C)CC[C@]3(C)C(=CC[C@@H]4[C@@]5(C)CCCNC(C)(C)[C@@H]5CC[C@]43C)C2C1 (stereo partly specified) | SR leukemia | true (1) |
| C=CCn1c(SCC(=O)Nc2cccc(C(=O)/C=C/c3ccc(Cl)cc3)c2)nc2ccccc2c1=O | SR leukemia | false (0) |
| CN(c1ccc(Br)cc1)S(=O)(=O)c1ccc(-c2cnc(C3CC3)o2)cc1 | SR leukemia | false (0) |
| C=C1C(=O)O[C@@H]2/C=C(/C)C3=CC(=O)[C@@](C)(C[C@H](OC(=O)/C(C)=C\C)[C@@H]12)O3 | SR leukemia | true (1) |
| CN(C)c1ccc(/C=N/Nc2nc(N/N=C/c3ccc(N(C)C)cc3)nc(N3CCOCC3)n2)cc1 | SR leukemia | true (1) |

###

# Test system: SF-268 CNS
# assay.details: NCI-60 one-dose screen, 48 h
# conditions: 10 µM unless noted
The panel holds about 83,000 compounds, 20% with a hit somewhere; the sample as a whole holds those more often. Activity calls are given as the source filed them. Rule for the calls: active = growth percent below 10; inactive = the rest.
Outcome codes: 1 = active, -1 = inactive

| molecule | cat |
| --- | --- |
| COc1cc2c3c(n(CCCNC4CCCCC4)c(=O)c2cc1OC)-c1cc2c(cc1C3=O)OCO2 | -1 |
| COc1ccc(-c2cc(-c3cccc4ccccc34)n3c(n2)nc2ccccc23)cc1OC | -1 |
| O=C(NCCCNc1cc(-c2cn(-c3ccccc3)nc2-c2cccc(O)c2)ccn1)Nc1cccc(C(F)(F)F)c1 | -1 |
| CC1COc2c(N3CCN(C)CC3)c(F)cc3c(=O)c(C(=O)N/N=C/c4cc[nH]c4)cn1c23 (configuration not stated) | -1 |
| COc1ccc(S(=O)(=O)n2cc(C=O)c3ccccc32)c(OC)c1 | -1 |
| C#CCOc1ccc(C(Nc2ccc(Cl)cc2)c2nnnn2C2CCCCC2)cc1 (configuration not stated) | -1 |
| IP(CCCCCCCCCCSc1n(Cc2ccc3ccccc3c2)c(-c2ccccc2)c(-c2ccccc2)[n+]1Cc1ccc2ccccc2c1)(c1ccccc1)(c1ccccc1)c1ccccc1 | 1 |
| CCNC(=O)Oc1ccc(/C(=C(/C)c2ccc(Cl)cc2)c2ccc(OCCN3CCCC3)cc2)cc1 | -1 |
| C#C[C@]1(O)CC[C@H]2[C@@H]3CC=C4c5sc(Nc6ccncc6)nc5CC[C@]4(C)[C@H]3CC[C@@]21C | 1 |
| CCc1ccc(NC(=O)N[C@@H](Cc2cc(F)cc(F)c2)C(=O)N[C@@H]2C(=O)N3CCC[C@H]3C(=O)N3CCO[C@H](C)[C@H]3C(=O)N[C@@H](CO)C(=O)N3C[C@H](C)C[C@H]3C(=O)O[C@H]2C)c(F)c1 | -1 |
| Nc1nc(-c2cccc([N+](=O)[O-])c2)c(N=Nc2cccc(Cl)c2)s1 | -1 |
| Cc1cc(NS(=O)(=O)c2ccc(-c3cnc(C4CC4)o3)cc2)ccc1I | -1 |
| CCc1ccc(NC(=O)N[C@@H](Cc2cccc(F)c2)C(=O)N[C@@H]2C(=O)N3CCC[C@H]3C(=O)N3CCCC[C@H]3C(=O)N[C@@H](C)C(=O)N3C[C@H](C)C[C@H]3C(=O)O[C@H]2C)c(F)c1 | -1 |
| COc1ccc([C@@H]2[C@@H](O)C(=O)N2c2cc(OC)c(OC)c(OC)c2)cc1Cl | -1 |
| COc1cc(CNC(=O)Cc2ccccc2[N+](=O)[O-])ccc1OCC(=O)NO | -1 |
| COc1ccc(NC(=O)[C@H](C)N)cc1C(=O)Nc1cccc(-c2cc(=O)c3c(OC)c(OC)c(OC)cc3o2)c1 | -1 |
| CC[C@]12C=CCN3CC[C@]4(C(=C(C(=O)OC)C1)Nc1cc5c(cc14)[C@@H]1[C@H](O5)[C@@H](O)[C@@]4(CC)CC(C(=O)OC)=C5Nc6cc(OC)ccc6[C@@]56CCN1[C@@H]46)[C@@H]32 | -1 |
| CS(=O)(=O)c1nccc(-c2c(-c3ccc(F)c(OCc4ccc(F)cc4)c3)nc3sccn23)n1 | -1 |
| CNC(=O)c1cc(Oc2ccc3nc(NC(=O)c4ccc(CN5CCN(C)CC5)c(C(F)(F)F)c4)sc3c2)ccn1 | -1 |
| C#CCOc1ccccc1C(Nc1ccccc1)c1nnnn1C1CCCCC1 (configuration not stated) | -1 |
| O=C(Nc1cc(Cl)cc(Cl)c1)Nc1nc2ccc([N+](=O)[O-])cc2s1 | -1 |
| C=C(C)[C@@H]1CC[C@]2(COS(C)(=O)=O)CC[C@]3(C)[C@H](CC[C@@H]4[C@@]5(C)CCCNC(C)(C)[C@@H]5CC[C@]43C)[C@@H]12 | -1 |
| CC(C)=CCc1c(O)c(CC=C(C)C)c2c(c1O)C(=O)C1=C[C@@H]3C[C@H]4C(C)(C)O[C@@](C/C=C(\C)C(=O)O)(C3=O)[C@@]14O2 | 1 |
| O=C(Nc1cccc(Cl)c1)Nc1nc2ccc([N+](=O)[O-])cc2s1 | 1 |
| COc1ccc(-c2cc(-c3cccc4ccccc34)n3c(n2)nc2ccccc23)cc1 | -1 |
| CS(=O)(=O)c1nccc(-c2c(-c3ccc(F)c(OCCc4ccccc4)c3)nc3sccn23)n1 | -1 |
| O=C(CN1C(=O)CSC1=O)Nc1ccc(C(=O)/C=C/c2cc3ccccc3nc2Cl)cc1 | -1 |
| O=C(CSc1nnc(-c2cccs2)n1-c1ccccc1)Nc1ccc(F)cc1 | -1 |
| CCOC(=O)c1c(NCC(=O)Nc2ccc(Br)cc2)sc2c1CCCC2 | -1 |
| COc1cc(-c2noc(C[C@@H](NC(=O)OCc3ccccc3)C(C)C)n2)cc(OC)c1OC | -1 |
| CCCCCCCCCC[C@@H](C)[C@@H]1CC(=O)N[C@H]([C@@H](C)O)C(=O)N[C@@H](C)C(=O)N[C@H](C)C(=O)N[C@@H](CCC(N)=O)C(=O)N[C@H](Cc2ccc(O)cc2)C(=O)N[C@@H](C(C)CC)C(=O)O1 (some centres not stated) | -1 |
| Cc1ccc(C2CC(c3ccc(Nc4nc(NCCO)nc(Nc5ccc(Cl)cc5)n4)cc3)=Nc3c(N)nc(N)nc3N2)cc1 (configuration not stated) | 1 |
